- System: kidney organoids derived from human induced pluripotent stem cells
- EXPERIMENT NOTES: Nephrotoxicity on kidney organoids, renal tubule deterioration by bright field imaging; further: key: 1 = unaffected; 2 = mild deterioration; 3 = severe deterioration; 4 = complete deterioration
- Assay type: cell-based
- SETTINGS: 300 μM, scored after 48 h
- Experimental: Selected polymyxin analogues were evaluated for cytotoxicity in physiologically relevant human kidney tissue, using kidney organoids derived from human induced pluripotent stem cells (Soo et al. 2018). […] Toxicity was scored after 48 h for signs of renal tubule deterioration visible by bright field imaging (not shown).
Positions of bridges follow the written chain, without caps; N, C: chain ends. Non-standard residues stand in square brackets, D forms with d. Residues, ends and D or L forms follow the SMILES beside them. *: point of attachment. Ethyl(2-OPiv) = CC(C)(C)C(=O)OCC*; Ethyl(2-OBz) = O=C(OCC*)c1ccccc1; Dab = NCC[C@H](N)C(=O)O
QUANTITY KIND: Score (nephrotoxicity on kidney organoids)
Numbers only.

[Q] // fetch kidney organoids derived from human induced pluripotent stem cells Score (nephrotoxicity on kidney organoids) for C[C@@H](O)[C@@H]1NC(=O)[C@H](CCN)NC(=O)[C@H](CCN)NC(=O)[C@H](CSCCOC(=O)c2ccccc2)NC(=O)[C@@H](Cc2ccccc2)NC(=O)[C@H](CCN)NC(=O)[C@@H](NC(=O)[C@H](CCN)NC(=O)[C@@H](NC(=O)[C@H](CCN)NC(=O)[C@@H](N)CSCCOC(=O)C(C)(C)C)[C@@H](C)O)CCNC1=O [Compound 46] (H-C(Ethyl(2-OPiv))[Dab]T[Dab][Dab][Dab][dF]C(Ethyl(2-OBz))[Dab][Dab]T; lactam 5-C)
[A] 3
